molecular target: Quinolone resistance protein NorA (Staphylococcus aureus) (UniProt P0A0J7); experiment: Inhibition of NorA in fluoroquinolone-resistant Staphylococcus aureus 1199B assessed as minimum modulatory concentration require to potentiate 4 ug/ml ciprofloxacin-induced antibacterial activity
Please enter MET where MMC is greater than or equal to 1 µg/mL, and NOT MET where it is lower.

[
  {
    "molecule_smiles": "CCCCCCOc1ccc(B(O)O)cn1",
    "class_label": "MET"
  },
  {
    "molecule_smiles": "OB(O)c1ccc(OCCCCCc2ccccc2)nc1",
    "class_label": "MET"
  },
  {
    "molecule_smiles": "CCCCOc1ccc(B(O)O)cn1",
    "class_label": "MET"
  },
  {
    "molecule_smiles": "CCCCCOc1ccc(B(O)O)cn1",
    "class_label": "MET"
  },
  {
    "molecule_smiles": "OB(O)c1ccc(OCCCCCCCc2ccccc2)nc1",
    "class_label": "NOT MET"
  },
  {
    "molecule_smiles": "OB(O)c1ccc(OCc2ccc(Cl)c(Cl)c2)nc1",
    "class_label": "NOT MET"
  },
  {
    "molecule_smiles": "CCCCCCCCCCCCOc1ccc(B(O)O)cn1",
    "class_label": "MET"
  },
  {
    "molecule_smiles": "OB(O)c1ccc(NCc2ccccc2)nc1",
    "class_label": "MET"
  },
  {
    "molecule_smiles": "Cc1cc(B(O)O)cnc1OCc1ccccc1",
    "class_label": "MET"
  },
  {
    "molecule_smiles": "OB(O)c1ccc(OCc2ccc3c(c2)OCO3)nc1",
    "class_label": "MET"
  },
  {
    "molecule_smiles": "OB(O)c1ccc(OCCCCCCc2ccccc2)nc1",
    "class_label": "NOT MET"
  },
  {
    "molecule_smiles": "OB(O)c1ccc(OCCCc2ccccc2)nc1",
    "class_label": "NOT MET"
  },
  {
    "molecule_smiles": "OB(O)c1cncc(OCc2ccccc2)c1",
    "class_label": "MET"
  },
  {
    "molecule_smiles": "CCCCCCCOc1ccc(B(O)O)cn1",
    "class_label": "NOT MET"
  }
]
